B1: FLAG-GST-SALL4 (wild type) [human] / biotinylated CRBN (wild type) [modified: biotin (added by BirA during cell-free synthesis); biotin (added by BirA during cell-free synthesis)] [human] (parent)
chain 1: MSRRKQAKPQHINSEEDQGEQQPQQQTPEFADAAPAAPAAGELGAPVNHPGNDEVASEDEATVKRLRREETHVCEKCCAEFFSISEFLEHKKNCTKNPPVLIMNDSEGPVPSEDFSGAVLSHQPTSPGSKDCHRENGGSSEDMKEKPDAESVVYLKTETALPPTPQDISYLAKGKVANTNVTLQALRGTKVAVNQRSADALPAPVPGANSIPWVLEQILCLQQQQLQQIQLTEQIRIQVNMWASHALHSSGAGADTLKTLGSHMSQQVSAAVALLSQKAGSQGLSLDALKQAKLPHANIPSATSSLSPGLAPFTLKPDGTRVLPNVMSRLPSALLPQAPGSVLFQSPFSTVALDTSKKGKGKPPNISAVDVKPKDEAALYKHKCKYCSKVFGTDSSLQIHLRSHTGERPFVCSVCGHRFTTKGNLKVHFHRHPQVKANPQLFAEFQDKVAAGNGIPYALSVPDPIDEPSLSLDSKPVLVTTSVGLPQNLSSGTNPKDLTGGSLPGDLQPGPSPESEGGPTLPGVGPNYNSPRAGGFQGSGTPEPGSETLKLQQLVENIDKATTDPNECLICHRVLSCQSSLKMHYRTHTGERPFQCKICGRAFSTKGNLKTHLGVHRTNTSIKTQHSCPICQKKFTNAVMLQQHIRMHMGGQIPNTPLPENPCDFTGSEPMTVGENGSTGAICHDDVIESIDVEEVSSQEAPSSSSKVPTPLPSIHSASPTLGFAMMASLDAPGKVGPAPFNLQRQGSRENGSVESDGLTNDSSSLMGDQEYQSRSPDILETTSFQALSPANSQAESIKSKSPDAGSKAESSENSRTEMEGRSSLPSTFIRAPPTYVKVEVPGTFVGPSTLSPGMTPLLAAQPRRQAKQHGCTRCGKNFSSASALQIHERTHTGEKPFVCNICGRAFTTKGNLKVHYMTHGANNNSARRGRKLAIENTMALLGTDGKRVSEIFPKEILAPSVNVDPVVWNQYTSMLNGGLAVKTNEISVIQSGGVPTLPVSLGATSVVNNATVSKMDGSQSGISADVEKPSATDGVPKHQFPHFLEENKIAVS
chain 2: MAGEGDQQDAAHNMGNHLPLLPAESEEEDEMEVEDQDSKEAKKPNIINFDTSLPTSHTYLGADMEEFHGRTLHDDDSCQVIPVLPQVMMILIPGQTLPLQLFHPQEVSMVRNLIQKDRTFAVLAYSNVQEREAQFGTTAEIYAYREEQDFGIEIVKVKAIGRQRFKVLELRTQSDGIQQAKVQILPECVLPSTMSAVQLESLNKCQIFPSKPVSREDQCSYKWWQKYQKRKFHCANLTSWPRWLYSLYDAETLMDRIKKQLREWDENLKDDSLPSNPIDFSYRVAACLPIDDVLRIQLLKIGSAIQRLRCELDIMNKCTSLCCKQCQETEITTKNEIFSLSLCGPMAAYVNPHGYVHETLTVYKACNLNLIGRPSTEHSWFPGYAWTVAQCKICASHIGWKFTATKKDMSPQKFWGLTRSALLPTIPDTEDEISPDKVILCL

variants of: B1; assay: AlphaScreen (AS-based interaction assay); conditions: with biotinylated CRBN (wild type) [modified: biotin (added by BirA during cell-free synthesis), 5HP, last (highest) point of the titration, Log[5HP (µM)] = 2, signal relative to DMSO = 1, read off a plot
reportedEndpoint: response (Relative AS signal)
One number for each entry.

[[record]]
mutationstring = "chain 1 V411L"
reportedresult = 14


Please go through the list and note response (Relative AS signal) for each variant.
1. chain 1 V411T
2. chain 1 V411I

RESULT:
[43, 51]

QUERY: Quick check: response (Relative AS signal) of chain 1 V411A ?
RESULT: 26

The reported measurements were obtained from paper PMC7490372.
